Just for reference, ChEMBL document CHEMBL1121426 is where these values come from.

test: Partition coefficient (logP); format: physicochemical; settings: octanol/water
measuredProperty: logP

Please review the following examples before continuing.
molSmiles: O=C(O)Cc1cc(O)cc(-c2ccccc2)c1
logP: 2.75
//
molSmiles: Nc1nc(N)nc(-c2cc(Br)ccc2Cl)n1
logP: 2.04

(P) C=CCn1c(C)c(N(C)C)c(=O)n(-c2ccccc2)c1=O
(Q) CC(C)Cc1ccc(CC(=O)O)cc1
(R) CCN(CC)c1c(C)n(C)c(=O)n(-c2ccccc2)c1=O
Lookup: Ascending by logP, please: list the compounds accordingly. # answer = labels listed in requested order
Found: P, R, Q
(P: 1.44, R: 2.11, Q: 3.38)

====

experiment: Partition coefficient (logP); assay type: physicochemical; details: octanol/water
measuredProperty: logP

(A) Nc1nc(N)nc(-c2ccc([N+](=O)[O-])cc2)n1
(B) COc1cc(CC(=O)O)cc(-c2ccc(C)cc2)c1
(C) O=C(O)Cc1cccc(Br)c1
(D) Cc1c(N(C)C)c(=O)n(C)c(=O)n1C
Lookup: Sort the entries above by logP, largest first. # answer = labels listed in requested order
Found: B, C, A, D
(B: 3.72, C: 2.36, A: 1.6, D: 0.99)

====

assay: Partition coefficient (logP); format: physicochemical; settings: octanol/water
measuredProperty: logP

Please review the following examples before continuing.
molSmiles: Nc1nc(N)nc(-c2cccc(C(F)(F)F)c2)n1
measuredValue: 2.67
//
molSmiles: Nc1nc(N)nc(-c2cc(Cl)ccc2Br)n1
measuredValue: 1.85
//
molSmiles: CCCNc1c(C)n(C)c(=O)n(-c2ccccc2)c1=O
measuredValue: 1.2
//
molSmiles: Nc1nc(N)nc(-c2ccccc2Br)n1
measuredValue: 1.26
//
molSmiles: Cc1c(N(C)C)c(=O)[nH]c(=O)n1-c1ccccc1
measuredValue: 1.4

(1) Nc1nc(N)nc(-c2cc(F)ccc2Cl)n1
(2) COc1cc(CC(=O)O)cc(-c2ccccc2)c1
Lookup: Kindly compare 1 with 2 and tell me which has the lower logP figure. Return value: the label identifying the chosen record.
Found: 1
(1: 1.38, 2: 3.3)

(I) O=C(O)Cc1cccc([N+](=O)[O-])c1
(II) COc1cc(C)cc(CC(=O)O)c1
(III) Nc1nc(N)nc(-c2ccccc2[N+](=O)[O-])n1
Lookup: List from greatest to least logP. # answer = labels listed in requested order
Found: II, I, III

====

test system: Rattus norvegicus; assay: Antiulcer activity in rat at the dose of 20 mg/kg administered intraperitoneally.; type: functional; conditions: ip, route intraperitoneal
Overview of reported inhibition in vivo at 20 mg/kg across a group of compounds:
// note: answer is a bare numeric in %

Please review the following examples before continuing.
compound: Nc1nc(N)nc(-c2ccccc2)n1 [BENZOGUANAMINE]
tgt: Rattus norvegicus
quantityUnit: %
inhibition in vivo at 20 mg/kg: 70
--
compound: CCc1ccccc1-c1nc(N)nc(N)n1
tgt: Rattus norvegicus
quantityUnit: %
inhibition in vivo at 20 mg/kg: 20

Lookup: For `Nc1nc(N)nc(-c2ccc(Cl)cc2Cl)n1` , what is its reported inhibition in vivo at 20 mg/kg?
Found: 100

Lookup: Next up: `CSc1cccc(-c2nc(N)nc(N)n2)c1`
Found: 49

====

assay: Partition coefficient (logP); assay type: physicochemical; conditions: octanol/water
measuredProperty: logP

molecule: Cc1c(N(C)C)c(=O)n(C)c(=O)n1-c1ccc(Cl)cc1
measuredValue: 2.32
--
molecule: Nc1nc(N)nc(-c2ccccc2)n1 [BENZOGUANAMINE]
measuredValue: 1.36
--
molecule: COc1cc(CC(=O)O)cc(-c2ccc(F)cc2)c1
measuredValue: 3.5
--
molecule: CCCCOc1cc(C)cc(CC(=O)O)c1
measuredValue: 3.38

(P) Nc1nc(N)nc(-c2cc(F)ccc2Br)n1
(Q) Cc1c(N2CCOCC2)c(=O)n(-c2ccccc2)c(=O)n1C
(R) COc1cc(CC(=O)O)cc(-c2ccccc2Cl)c1
(S) Cc1c(N2CCCC2)c(=O)n(-c2ccccc2)c(=O)n1C
Lookup: List from greatest to least logP. # answer = labels listed in requested order
Found: R, S, P, Q

(P) Nc1nc(N)nc(-c2ccc(Cl)cc2Cl)n1
(Q) Nc1nc(N)nc(-c2cccc(SC(F)(F)F)c2)n1
Lookup: Please tell me which of the two, P or Q , has the higher reported logP value. Return value: the label identifying the chosen record.
Found: Q

(a) Nc1nc(N)nc(-c2ccc(F)cc2)n1
(b) C=CCN(CC=C)c1c(C)n(-c2ccccc2)c(=O)n(C)c1=O
(c) CS(=O)(=O)c1cccc(-c2nc(N)nc(N)n2)c1
(d) COc1ccccc1-c1nc(N)nc(N)n1
(e) Cc1c(N(C)C)c(=O)n(-c2ccccc2)c(=O)n1CCO
Lookup: Ascending by logP, please: list the molecules accordingly. # answer = labels listed in requested order
Found: c, d, e, a, b
(c: 0.29, d: 0.58, e: 0.85, a: 1.61, b: 2.59)

(A) COc1cc(CC(=O)O)cc(C(C)C)c1
(B) Nc1nc(N)nc(-c2cccc([N+](=O)[O-])c2)n1
Lookup: Please tell me which of the two, A or B , has the higher reported logP value. Return value: the label identifying the chosen record.
Found: A
(A: 2.75, B: 1.57)

====

system: Rattus norvegicus; test: Antiulcer activity in rat at the dose of 20 mg/kg administered intraperitoneally.; assay type: functional; settings: ip, route intraperitoneal
Overview of reported inhibition in vivo at 20 mg/kg across a group of compounds:
// note: answer is a bare numeric in %

Please review the following examples before continuing.
molSmiles: Cc1ccccc1-c1nc(N)nc(N)n1
tgt: Rattus norvegicus
inhibition in vivo at 20 mg/kg (%): 28
//
molSmiles: Nc1nc(N)nc(-c2cccc(F)c2)n1
tgt: Rattus norvegicus
inhibition in vivo at 20 mg/kg (%): 70
//
molSmiles: Nc1nc(N)nc(-c2c(Cl)cccc2Cl)n1
tgt: Rattus norvegicus
inhibition in vivo at 20 mg/kg (%): 54
//
molSmiles: Nc1nc(N)nc(-c2cc(C(F)(F)F)ccc2Cl)n1
tgt: Rattus norvegicus
inhibition in vivo at 20 mg/kg (%): 51
//
molSmiles: Nc1nc(N)nc(-c2cc(F)ccc2Br)n1
tgt: Rattus norvegicus
inhibition in vivo at 20 mg/kg (%): 78
//
molSmiles: Nc1nc(N)nc(-c2cc(Cl)ccc2Br)n1
tgt: Rattus norvegicus
inhibition in vivo at 20 mg/kg (%): 81
//
molSmiles: Nc1nc(N)nc(-c2ccccc2Br)n1
tgt: Rattus norvegicus
inhibition in vivo at 20 mg/kg (%): 26
//
molSmiles: Nc1nc(N)nc(-c2cccc(C(F)(F)F)c2)n1
tgt: Rattus norvegicus
inhibition in vivo at 20 mg/kg (%): 81
//
molSmiles: Nc1nc(N)nc(-c2cccc([N+](=O)[O-])c2)n1
tgt: Rattus norvegicus
inhibition in vivo at 20 mg/kg (%): 85
//
molSmiles: Nc1nc(N)nc(-c2ccccc2I)n1
tgt: Rattus norvegicus
inhibition in vivo at 20 mg/kg (%): -7

Lookup: For `Nc1nc(N)nc(-c2ccc(Cl)cc2)n1` , what is its reported inhibition in vivo at 20 mg/kg?
Found: 69

Lookup: Next up: `Nc1nc(N)nc(-c2cc(Br)ccc2Br)n1`
Found: 43

Lookup: Next up: `Nc1nc(N)nc(-c2cc(Br)ccc2F)n1`
Found: 100

Lookup: Next up: `Cc1ccc(-c2nc(N)nc(N)n2)cc1`
Found: 54

====

assay: Partition coefficient (logP); format: physicochemical; settings: octanol/water
measuredProperty: logP

molSmiles: CCN(CC)c1c(C)n(-c2ccccc2)c(=O)n(CC)c1=O
logP: 2.78
//
molSmiles: CCCCNc1c(C)n(C)c(=O)n(-c2ccccc2)c1=O
logP: 1.69
//
molSmiles: COc1ccc(Br)cc1-c1nc(N)nc(N)n1
logP: 1.53

(A) Cc1cccc(CC(=O)O)c1
(B) CCOc1ccccc1-c1nc(N)nc(N)n1
(C) Cc1c(N2CCCCC2)c(=O)n(-c2ccccc2)c(=O)n1C
Lookup: List from greatest to least logP. # answer = labels listed in requested order
Found: C, A, B

(1) Nc1nc(N)nc(-c2ccc(Cl)cc2Br)n1
(2) COc1cccc(CC(=O)O)c1
Lookup: Please tell me which of the two, 1 or 2 , has the higher reported logP value. Return value: the label identifying the chosen record.
Found: 1

(A) Nc1nc(N)nc(-c2cccc(Br)c2)n1
(B) Nc1nc(N)nc(-c2ccccc2I)n1
Lookup: Kindly compare A with B and tell me which has the lower logP figure. Return value: the label identifying the chosen record.
Found: B
(B: 1.41, A: 2.44)

(I) Nc1nc(N)nc(-c2cc(C(F)(F)F)ccc2Cl)n1
(II) Cc1c(N(C)C)c(=O)n(-c2ccccc2)c(=O)n1C
Lookup: Kindly compare I with II and tell me which has the lower logP figure. Return value: the label identifying the chosen record.
Found: II
